Target: Wild type MR (Homo sapiens)
Sequence (P08235 1-984): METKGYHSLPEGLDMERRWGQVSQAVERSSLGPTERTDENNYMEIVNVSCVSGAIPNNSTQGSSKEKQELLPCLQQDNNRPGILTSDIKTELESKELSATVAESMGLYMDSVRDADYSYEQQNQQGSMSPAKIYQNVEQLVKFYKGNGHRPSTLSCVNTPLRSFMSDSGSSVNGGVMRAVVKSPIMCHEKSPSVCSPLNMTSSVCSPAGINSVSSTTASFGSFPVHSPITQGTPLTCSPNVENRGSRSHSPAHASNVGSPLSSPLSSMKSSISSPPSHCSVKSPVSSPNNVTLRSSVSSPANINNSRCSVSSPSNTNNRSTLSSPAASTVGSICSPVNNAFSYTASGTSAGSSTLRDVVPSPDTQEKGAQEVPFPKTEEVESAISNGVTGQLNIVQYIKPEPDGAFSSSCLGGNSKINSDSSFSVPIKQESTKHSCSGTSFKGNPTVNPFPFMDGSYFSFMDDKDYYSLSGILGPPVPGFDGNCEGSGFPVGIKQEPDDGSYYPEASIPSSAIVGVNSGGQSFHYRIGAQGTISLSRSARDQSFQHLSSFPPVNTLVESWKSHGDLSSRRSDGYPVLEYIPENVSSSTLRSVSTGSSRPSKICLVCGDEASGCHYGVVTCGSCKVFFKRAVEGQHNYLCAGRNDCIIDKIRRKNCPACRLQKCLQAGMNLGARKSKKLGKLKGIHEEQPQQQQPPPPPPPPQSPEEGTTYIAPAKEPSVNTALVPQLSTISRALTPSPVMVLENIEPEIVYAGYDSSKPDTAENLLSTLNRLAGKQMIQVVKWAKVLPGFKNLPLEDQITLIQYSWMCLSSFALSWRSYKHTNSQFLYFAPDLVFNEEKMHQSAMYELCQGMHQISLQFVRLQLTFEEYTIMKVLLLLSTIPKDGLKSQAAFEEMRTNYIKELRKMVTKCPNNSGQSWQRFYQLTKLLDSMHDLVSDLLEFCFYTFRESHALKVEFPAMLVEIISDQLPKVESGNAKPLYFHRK
Assay: Ligand binding affinities on MR constructs (Table 1), wild type MR
Details: wild-type MR; read-out: IC50 binding affinity, wild-type MR
pIC50: −log10 of the molar value.
measurement.type: pIC50

get_value(item= C[C@]12CCC(=O)C=C1CC[C@@H]1[C@@H]2C(=O)C[C@@]2(C)[C@H]1CC[C@]2(O)C(=O)CO [Cortisone, cortisone] , readout=pIC50) returns < 5.00

---

Molecular target: MR S810L (Homo sapiens, UniProt P08235, S810L)
Experiment: Ligand binding affinities on MR constructs (Table 1), MR S810L
Conditions: read-out: IC50 binding affinity, MR S810L
measurement.type: IC50 (nM)
All answers are understood in nM, so give the number only.

[
  {
    "compound": "C[C@]12CCC(=O)C=C1CC[C@@H]1[C@@H]2C(=O)C[C@@]2(C)[C@H]1CC[C@]2(O)C(=O)CO [Cortisone, cortisone]",
    "endpoint.unit": "nM",
    "IC50": 20
  }
]

get_value(item= C[C@]12CCC(=O)C=C1CC[C@@H]1[C@@H]2[C@@H](O)C[C@@]2(C)[C@H]1CC[C@]2(O)C(=O)CO [Cortisol, cortisol] , readout=IC50) returns 20

---

Target: UniProt P08235
Assay: Ligand binding affinities on MR constructs (Table 1), wild type MR
Settings: Wild type MR; cells printed in nM; read-out: IC50 binding affinity, Wild type MR
measurement.type: IC50
# output: number + unit

get_value(item= C[C@]12CCC(=O)C=C1CC[C@@H]1[C@@H]2[C@@H](O)C[C@@]2(C)[C@H]1CC[C@]2(O)C(=O)CO [Cortisol, cortisol] , readout=IC50) returns 21 nM

---

Molecular target: Wild type MR (Homo sapiens, UniProt P08235)
Sequence (P08235 1-984): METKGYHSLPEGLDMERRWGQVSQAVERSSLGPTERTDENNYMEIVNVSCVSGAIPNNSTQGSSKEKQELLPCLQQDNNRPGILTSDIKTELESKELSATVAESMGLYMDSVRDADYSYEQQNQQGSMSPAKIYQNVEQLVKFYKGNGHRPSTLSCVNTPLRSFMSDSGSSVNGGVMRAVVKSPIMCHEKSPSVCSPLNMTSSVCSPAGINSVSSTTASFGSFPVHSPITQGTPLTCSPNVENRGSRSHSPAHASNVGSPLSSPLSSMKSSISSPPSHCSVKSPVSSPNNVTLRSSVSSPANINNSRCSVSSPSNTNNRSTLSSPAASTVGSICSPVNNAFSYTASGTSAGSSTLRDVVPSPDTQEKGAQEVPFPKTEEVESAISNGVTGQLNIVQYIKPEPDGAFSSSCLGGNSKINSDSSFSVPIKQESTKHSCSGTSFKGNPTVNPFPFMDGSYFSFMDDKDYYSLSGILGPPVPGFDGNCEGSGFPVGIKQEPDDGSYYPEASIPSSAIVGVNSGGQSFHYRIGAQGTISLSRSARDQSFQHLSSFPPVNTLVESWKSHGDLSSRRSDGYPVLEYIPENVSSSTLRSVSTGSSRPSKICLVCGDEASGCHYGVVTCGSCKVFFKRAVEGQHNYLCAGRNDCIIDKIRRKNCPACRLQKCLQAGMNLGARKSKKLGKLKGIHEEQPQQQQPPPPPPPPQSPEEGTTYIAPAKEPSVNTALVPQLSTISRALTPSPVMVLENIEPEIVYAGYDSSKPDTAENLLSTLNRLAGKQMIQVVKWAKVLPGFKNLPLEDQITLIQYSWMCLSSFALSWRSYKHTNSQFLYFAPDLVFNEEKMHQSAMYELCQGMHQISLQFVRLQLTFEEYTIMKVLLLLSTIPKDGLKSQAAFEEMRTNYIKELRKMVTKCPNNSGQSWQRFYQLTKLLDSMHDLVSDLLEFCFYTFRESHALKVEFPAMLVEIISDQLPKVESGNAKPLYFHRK
Assay: Ligand binding affinities on MR constructs (Table 1), wild type MR
Settings: Wild type MR; in uM; read-out: IC50 binding affinity, Wild type MR
measurement.type: IC50

get_value(item= `C[C@]12CCC(=O)C=C1CC[C@@H]1[C@@H]2C(=O)C[C@@]2(C)[C@H]1CC[C@]2(O)C(=O)CO` , readout=IC50) returns > 10 µM

The reported measurements were obtained from patent US20070219348A1.
